system: Amaranthus retroflexus; assay: Post-emergence test on weeds (greenhouse, spray at 2-3 leaf stage); format: in vivo; design: key: Level 10: completely dead; Level 9: growth control rate greater than or equal to 90% and less than 100%; Level 8: growth control rate greater than or equal to 80% and less than 90%; Level 7: growth control rate greater than or equal to 70% and less than 80%; Level 6: growth control rate greater than or equal to 60% and less than 70%; Level 5: growth control rate greater than or equal to 50% and less than 60%; Level 4: growth control rate greater than or equal to 40% and less than 50%; Level 3: growth control rate greater than or equal to 30% and less than 40%; Level 2: growth control rate greater than or equal to 20% and less than 30%; Level 1: growth control rate less than 20%; Level 0: no effect; conditions: 60 g a.i./ha, 3 weeks after application
value-kind: activity level (fresh weight growth control rate), Amaranthus retroflexus

{"compound": "CCOC(=O)C1(C)ON=C(c2cc(-c3ncc(C)cc3F)c(F)cc2Cl)O1 (centres unmarked) [Compound 32]", "measured-number": 10}
{"compound": "CCOC(=O)C1ON=C(c2cc(-c3ncc(C(F)(F)F)cc3Cl)c(F)cc2Br)O1 (centres unmarked) [Compound 25]", "measured-number": 10}
{"compound": "Cc1cc(C)n(C(=O)C2(C)ON=C(c3cc(-c4ncc(C(F)(F)F)cc4Cl)c(F)cc3Cl)O2)n1 (racemic) [Compound 156]", "measured-number": 10}
{"compound": "CC1(C(=O)OCC2CC2)ON=C(c2cc(-c3ncc(C(F)(F)F)cc3Cl)c(F)cc2Cl)O1 (centres unmarked) [Compound 126]", "measured-number": 10}
{"compound": "CCOC(=O)C1(C2CC2)ON=C(c2cc(-c3ncc(C(F)(F)F)cc3Cl)c(F)cc2Cl)O1 (centres unmarked) [Compound 79]", "measured-number": 10}
{"compound": "CSCOC(=O)C1(C)ON=C(c2cc(-c3ncc(C(F)(F)F)cc3Cl)c(F)cc2Cl)O1 (centres unmarked) [Compound 109]", "measured-number": 10}
{"compound": "COC(=O)C1ON=C(c2cc(-c3ncc(C(F)(F)F)cc3Cl)c(F)cc2Br)O1 (centres unmarked) [Compound 2]", "measured-number": 10}
{"compound": "CCOC(=O)C1(CC)ON=C(c2cc(-c3ncc(C(F)(F)F)cc3F)c(F)cc2Cl)O1 (centres unmarked) [Compound 58]", "measured-number": 10}
